The reported numbers originate from patent US9957265B2.

Study target: JAK1 (Homo sapiens (Human), UniProt P23458)
Sequence (P23458 875-1153): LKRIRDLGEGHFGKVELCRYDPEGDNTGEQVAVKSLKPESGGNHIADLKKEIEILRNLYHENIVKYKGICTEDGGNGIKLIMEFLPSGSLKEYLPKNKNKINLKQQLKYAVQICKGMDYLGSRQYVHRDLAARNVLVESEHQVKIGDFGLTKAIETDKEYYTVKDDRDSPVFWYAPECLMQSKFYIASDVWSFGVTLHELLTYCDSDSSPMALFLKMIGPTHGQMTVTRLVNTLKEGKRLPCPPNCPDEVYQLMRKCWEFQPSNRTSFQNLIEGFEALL
Assay summary: Jak Biochemical HTRF Assay (JAK1)
Condition context: recombinant GST-tagged catalytic domain, [ATP] 31.8 μM, unit not given (compound concentrations tested given in nM)
Source text: Jak Biochemical HTRF Assay Protocol Subsequent reagent additions employed an Agilent Bravo.
Assay metric: IC50 (nM)

Record excerpt, results attached:
N#Cc1ccc(Nc2nn([C@H]3COCC[C@@H]3C#N)c3cc[nH]c(=O)c23)cc1F [Example 1-32]; 0.24
N#C[C@H]1CCOC[C@@H]1n1nc(Nc2ccc(C(NC3CCC3)C(F)(F)F)cc2)c2c(=O)[nH]ccc21 (single isomer, unassigned) [Example 1-93]; 0.09
CC(C)(C)S(=O)(=O)c1ccc(Nc2nn([C@@H]3COCCC[C@@H]3C#N)c3cc[nH]c(=O)c23)cc1 (single isomer, unassigned) [Example 1-25]; 2.27
CN1CCN(C(c2ccc(Nc3nn([C@H]4COCC[C@@H]4C#N)c4cc[nH]c(=O)c34)cc2)C(F)(F)F)CC1 (single isomer, unassigned) [Example 1-36]; 0.24
CC1(C)CC2(c3ccc(Nc4nn([C@H]5COCC[C@@H]5C#N)c5cc[nH]c(=O)c45)cc3)CCC1C(=O)O2 (stereo partly drawn) [Example 1-20]; 0.07
COc1cc(Nc2nn([C@H]3COCC[C@@H]3C#N)c3cc[nH]c(=O)c23)ccc1F [Example 1-17]; 0.09
CC(C)NC1(C)C(=O)Nc2cc(Nc3nn(C4COCC[C@@H]4C#N)c4cc[nH]c(=O)c34)ccc21 (single isomer, unassigned) [Example 1-101]; 0.07
N#C[C@H]1CCOCC1n1nc(Nc2ccc(C3(C(F)(F)F)CCNC3)cc2)c2c(=O)[nH]ccc21 (single isomer, unassigned) [Example 1-99]; 0.07

(I) C[S+]([O-])c1cc(Nc2nn([C@H]3COCC[C@@H]3C#N)c3cc[nH]c(=O)c23)ccc1F (single isomer, unassigned) [Example 3-3]
(II) C[S+]([O-])c1cc(Nc2nn([C@H]3COCC[C@@H]3C#N)c3cc[nH]c(=O)c23)ccc1F (single isomer, unassigned) [Example 3-2]
(III) CC(O)(c1ccc(Nc2nn([C@H]3COCC[C@@H]3C#N)c3cc[nH]c(=O)c23)cc1)C(F)(F)F (single isomer, unassigned) [Example 2-4]
(IV) CC(C)NC(C)(C)c1ccc(Nc2nn([C@H]3COCC[C@@H]3C#N)c3cc[nH]c(=O)c23)cc1 [Example 1-61]
Give the ascending ranking of the items by reported IC50. Labels, ranked as asked.
III, IV, II, I

----------
Study target: JAK2 (Homo sapiens (Human), UniProt O60674)
Sequence (O60674 849-1124): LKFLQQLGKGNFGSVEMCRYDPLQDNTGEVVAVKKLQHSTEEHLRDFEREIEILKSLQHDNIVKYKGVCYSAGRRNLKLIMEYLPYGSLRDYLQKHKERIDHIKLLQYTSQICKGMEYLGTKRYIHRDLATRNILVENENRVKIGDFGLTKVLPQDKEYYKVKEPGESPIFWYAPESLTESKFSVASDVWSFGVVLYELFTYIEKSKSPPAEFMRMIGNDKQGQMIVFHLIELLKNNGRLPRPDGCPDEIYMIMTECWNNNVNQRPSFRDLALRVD
Assay summary: Jak Biochemical HTRF Assay (JAK2)
Condition context: read-out: JAK2 IC50, recombinant GST-tagged catalytic domain, [ATP] 8.5 μM, unit not given (compound concentrations tested given in nM)
Assay metric: IC50 (nM)

(1) COC(=N)c1cc(Nc2nn([C@H]3COCC[C@@H]3C#N)c3cc[nH]c(=O)c23)ccc1O [Example 1-16]
(2) N#C[C@H]1CCOC[C@@H]1n1nc(Nc2ccccc2)c2c(=O)[nH]ccc21 [Example 1-3]
(3) C[C@H]1CN(S(=O)(=O)c2ccc(Nc3nn([C@H]4COCC[C@@H]4C#N)c4cc[nH]c(=O)c34)cc2)C[C@H](C)O1 (stereo in doubt) [Example 1-76]
(4) CC(C)N1Cc2ccc(Nc3nn([C@H]4COCC[C@@H]4C#N)c4cc[nH]c(=O)c34)cc2C1 [Example 1-15]
Put the above molecules in order of rising IC50, beginning with the smallest. Labels, ranked as asked.
4, 3, 2, 1
(4: 0.27 nM, 3: 0.82 nM, 2: 1.39 nM, 1: 5.04 nM)

----------
Study target: JAK1 (Homo sapiens (Human))
Assay summary: Jak Biochemical HTRF Assay (JAK1)
Condition context: recombinant GST-tagged catalytic domain, [ATP] 31.8 μM, unit not given (compound concentrations tested given in nM)
Assay metric: IC50 (nM)

CC(C)(N)c1ccc(Nc2nn([C@H]3COCC[C@@H]3C#N)c3cc[nH]c(=O)c23)cc1; 0.21

(I) CC1CCCN1C(c1ccc(Nc2nn([C@H]3COCC[C@@H]3C#N)c3cc[nH]c(=O)c23)cc1)C(F)(F)F (single isomer, unassigned) [Example 1-89]
(II) N#C[C@H]1CCOC[C@@H]1n1nc(Nc2ccc(C(N)C(F)(F)F)cc2)c2c(=O)[nH]ccc21 (single isomer, unassigned) [Example 1-9]
Identify the entry with the larger IC50. Options: I and II Your answer should be the label attached to the chosen record.
I

----------
Study target: JAK2 (Homo sapiens (Human))
Assay summary: Jak Biochemical HTRF Assay (JAK2)
Condition context: read-out: JAK2 IC50, recombinant GST-tagged catalytic domain, [ATP] 8.5 μM, unit not given (compound concentrations tested given in nM)
Assay metric: IC50 (nM)

CC(C)S(=O)(=O)c1ccc(Nc2nn([C@H]3COCC[C@@H]3C#N)c3cc[nH]c(=O)c23)cc1; 0.34
CC(C)(C)N1Cc2cc(Nc3nn([C@H]4COCC[C@@H]4C#N)c4cc[nH]c(=O)c34)ccc2S1(=O)=O; 0.15
CC(C)(C)S(=O)(=O)c1ccc(Nc2nn([C@H]3COCC[C@@H]3C#N)c3cc[nH]c(=O)c23)cc1; 0.21
CC1(C)C(=O)Nc2cc(Nc3nn([C@H]4COCC[C@@H]4C#N)c4cc[nH]c(=O)c34)ccc21; 0.16

(A) Cc1cc(Nc2nn([C@H]3COCC[C@@H]3C#N)c3cc[nH]c(=O)c23)ccc1C(=O)N1CCC(F)(F)CC1
(B) N#C[C@H]1CCOC[C@@H]1n1nc(Nc2ccc(S(=O)(=O)N3CCC3)cc2)c2c(=O)[nH]ccc21
(C) CC1(C)CN(S(=O)(=O)c2ccc(Nc3nn([C@H]4COCC[C@@H]4C#N)c4cc[nH]c(=O)c34)cc2)CCO1
Given 3 compounds, produce a descending ranking by IC50. Labels, ranked as asked.
C, B, A

----------
Study target: UniProtKB P23458
Assay summary: Jak Biochemical HTRF Assay (JAK1)
Condition context: recombinant GST-tagged catalytic domain, [ATP] 31.8 μM, unit not given (compound concentrations tested given in nM)
Assay metric: IC50 (nM)

CC(C)(C)NS(=O)(=O)c1ccc(Nc2nn([C@H]3COCC[C@@H]3C#N)c3cc[nH]c(=O)c23)cc1; 0.08

(P) CC(C)C(C)(C)S(=O)(=O)c1ccc(Nc2nn([C@H]3COCC[C@@H]3C#N)c3cc[nH]c(=O)c23)cc1
(Q) CC(C)(C)OC(=O)CNC(c1ccc(Nc2nn([C@H]3COCC[C@@H]3C#N)c3cc[nH]c(=O)c23)cc1)C(F)(F)F (single isomer, unassigned) [Example 1-40]
Lab note: check whether P or Q has the lower measured IC50. Your answer should be the label attached to the chosen record.
P
(P: 0.07 nM, Q: 0.16 nM)

----------
Study target: JAK1 (Homo sapiens (Human), UniProt P23458)
Assay summary: Jak Biochemical HTRF Assay (JAK1)
Condition context: recombinant GST-tagged catalytic domain, [ATP] 31.8 μM, unit not given (compound concentrations tested given in nM)
Assay metric: IC50 (nM)

(I) CC1(C)C(=O)Nc2cc(Nc3nn([C@H]4COCC[C@@H]4C#N)c4cc[nH]c(=O)c34)ccc21
(II) C[C@H]1CN(S(=O)(=O)c2ccc(Nc3nn([C@H]4COCC[C@@H]4C#N)c4cc[nH]c(=O)c34)cc2)C[C@H](C)O1 (stereo in doubt)
(III) CC(C)(C)NC(c1ccc(Nc2nn([C@H]3COCC[C@@H]3C#N)c3cc[nH]c(=O)c23)cc1)C(F)(F)F (single isomer, unassigned) [Example 1-51]
(IV) N#C[C@H]1CCOC[C@@H]1n1nc(Nc2ccc(C(NC3CCCC3)C(F)(F)F)cc2)c2c(=O)[nH]ccc21 (single isomer, unassigned) [Example 1-85]
(V) Cc1nc2ccc(Nc3nn([C@@H]4COCC[C@@H]4C#N)c4cc[nH]c(=O)c34)cc2s1
Sort the entries above numerically by IC50, high end first. Labels, ranked as asked.
II, IV, III, I, V

(a) N#C[C@H]1CCOC[C@@H]1n1nc(Nc2ccc(C3(C(F)(F)F)CCCCN3)cc2)c2c(=O)[nH]ccc21 (single isomer, unassigned) [Example 2-8]
(b) CN(C(C)(C)C)S(=O)(=O)c1ccc(Nc2nn([C@H]3COCC[C@@H]3C#N)c3cc[nH]c(=O)c23)cc1
(c) N#C[C@H]1CCOC[C@@H]1n1nc(Nc2ccc(C(N3CCSCC3)C(F)(F)F)cc2)c2c(=O)[nH]ccc21 (single isomer, unassigned) [Example 2-6]
Give the ascending ranking of the items by reported IC50. Labels, ranked as asked.
a, b, c
(a: 0.05 nM, b: 0.1 nM, c: 0.21 nM)

(1) N#C[C@H]1CCOC[C@@H]1n1nc(Nc2ccc3c(c2)CN(CC(F)(F)F)S3(=O)=O)c2c(=O)[nH]ccc21
(2) CC(C)(C)S(=O)(=O)c1ccc(Nc2nn([C@H]3COCC[C@@H]3C#N)c3cc[nH]c(=O)c23)cc1
(3) CC1CN(S(=O)(=O)c2ccc(Nc3nn([C@H]4COCC[C@@H]4C#N)c4cc[nH]c(=O)c34)cc2)CCO1 (single isomer, unassigned) [Example 1-74]
Given 3 compounds, produce a descending ranking by IC50. Labels, ranked as asked.
3, 2, 1
